# System: ATP;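 also: ATP exposure 15 min at 22 °C before imaging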
# METHOD: switch fluorescence ratio, 500 uM ATP over buffer (Cy3 cluster intensity, sum of 5 cycles each) (fold (ratio)); higher = stronger signal-on switching upon ATP binding; sequences stand for … in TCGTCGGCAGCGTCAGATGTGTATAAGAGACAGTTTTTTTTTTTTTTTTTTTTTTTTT…TC
# SETTINGS: aptamer strand: ATP DNA aptamer (quencher-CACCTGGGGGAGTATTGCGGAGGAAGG + anchor), 100 nM annealed; ATP concentration: 500 uM
READOUT_TYPE: switch fluorescence ratio
Answer field: number only, no words.

Examples with their reported switch fluorescence ratio follow.
INPUT_SEQUENCE: TAAAAGAAAA
VAL: 1
--
INPUT_SEQUENCE: CTAGGCTAAT
VAL: 1.01
--
INPUT_SEQUENCE: TCGTTTCATA
VAL: 0.978
--
INPUT_SEQUENCE: GTTGGTAAGA
VAL: 0.998
--
INPUT_SEQUENCE: AAAGGTAGGG
VAL: 0.993
--
INPUT_SEQUENCE: AACTCGGGGG
VAL: 0.999
--
INPUT_SEQUENCE: AATAAACAGG
VAL: 1.08
--
INPUT_SEQUENCE: TCGGAATCAA
VAL: 1.13

IN: Quick one: switch fluorescence ratio for AGTGGGGGGC ?
OUT: 0.998

IN: Record request: switch fluorescence ratio value, item TGGGATTTTT
OUT: 0.985

IN: For the sequence shown here, AAATGTCTAA , give the reported switch fluorescence ratio.
OUT: 1
